# melting point listing for each entry below

Ask | Please report the recorded melting point for C=CCn1c(-c2ccccc2)cn(N=C2C(=O)c3cccc4cccc2c34)c1=S .
Reply | 212 to 214 °C

###

measurement-target: human DNA topoisomerase II-β (TOPII-β) (Homo sapiens, UniProt Q02880)
Sequence (Q02880 whole entry): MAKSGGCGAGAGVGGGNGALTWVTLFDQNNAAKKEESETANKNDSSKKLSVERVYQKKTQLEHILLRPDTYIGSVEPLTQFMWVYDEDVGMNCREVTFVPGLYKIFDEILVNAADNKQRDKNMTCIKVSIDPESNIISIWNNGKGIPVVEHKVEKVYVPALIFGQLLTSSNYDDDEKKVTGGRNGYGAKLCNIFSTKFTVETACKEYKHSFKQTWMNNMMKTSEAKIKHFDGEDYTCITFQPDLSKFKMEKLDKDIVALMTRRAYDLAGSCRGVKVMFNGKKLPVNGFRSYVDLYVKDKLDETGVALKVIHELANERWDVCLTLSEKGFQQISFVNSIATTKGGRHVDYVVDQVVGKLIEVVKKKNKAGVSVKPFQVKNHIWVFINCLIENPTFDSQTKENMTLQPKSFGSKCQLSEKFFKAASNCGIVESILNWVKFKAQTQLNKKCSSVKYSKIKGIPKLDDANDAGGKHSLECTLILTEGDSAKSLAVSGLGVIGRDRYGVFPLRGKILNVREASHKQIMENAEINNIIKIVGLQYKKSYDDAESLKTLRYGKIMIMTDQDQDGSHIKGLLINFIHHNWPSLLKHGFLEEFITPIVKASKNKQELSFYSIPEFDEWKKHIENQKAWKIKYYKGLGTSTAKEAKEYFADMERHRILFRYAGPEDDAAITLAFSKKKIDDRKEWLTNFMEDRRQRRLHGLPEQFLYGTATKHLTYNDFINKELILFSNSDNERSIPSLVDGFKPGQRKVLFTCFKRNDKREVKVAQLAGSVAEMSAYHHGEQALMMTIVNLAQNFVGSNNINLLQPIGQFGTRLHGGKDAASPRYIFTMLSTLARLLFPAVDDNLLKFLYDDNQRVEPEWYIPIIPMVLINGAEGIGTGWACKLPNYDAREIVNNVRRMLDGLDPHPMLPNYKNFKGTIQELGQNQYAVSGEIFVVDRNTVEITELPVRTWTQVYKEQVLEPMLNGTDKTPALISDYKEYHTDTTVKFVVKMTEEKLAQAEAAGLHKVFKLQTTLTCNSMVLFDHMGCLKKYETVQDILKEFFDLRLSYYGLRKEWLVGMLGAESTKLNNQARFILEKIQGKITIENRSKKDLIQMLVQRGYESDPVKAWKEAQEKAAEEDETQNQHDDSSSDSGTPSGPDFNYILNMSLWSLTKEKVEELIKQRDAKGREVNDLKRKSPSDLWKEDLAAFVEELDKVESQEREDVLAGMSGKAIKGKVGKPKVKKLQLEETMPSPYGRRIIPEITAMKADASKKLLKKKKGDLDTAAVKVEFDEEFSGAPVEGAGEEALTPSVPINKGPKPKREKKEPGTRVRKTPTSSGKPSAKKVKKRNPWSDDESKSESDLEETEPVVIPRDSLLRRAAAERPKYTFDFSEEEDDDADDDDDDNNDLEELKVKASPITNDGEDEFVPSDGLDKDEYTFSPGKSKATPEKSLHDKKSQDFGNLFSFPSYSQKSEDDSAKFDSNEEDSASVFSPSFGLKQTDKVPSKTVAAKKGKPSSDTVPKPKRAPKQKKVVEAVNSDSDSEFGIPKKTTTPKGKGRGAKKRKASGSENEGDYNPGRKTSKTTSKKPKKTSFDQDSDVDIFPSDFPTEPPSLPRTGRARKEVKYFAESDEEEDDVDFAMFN
attribute-measured: pIC50
Schema: pIC50 number; meaning minus log10 of the concentration expressed in molar units.

Ask | // fetch human DNA topoisomerase II-β (TOPII-β) (Homo sapiens, UniProt Q02880) pIC50 for O=C1C(=Nn2cc(-c3ccc(Cl)cc3)n(-c3ccccc3)c2=S)c2cccc3cccc1c23
Reply | 6.47

###

# LOD (limit of detection; minimum concentration inducing detectable damage in ctDNA) listing for each entry below
Test system: calf thymus DNA (ctDNA)
run-description: Terbium (Tb3+) luminescent biosensor detection of induced DNA damage
Type: biochemical
condition-label: ctDNA, 24 h incubation
Don't forget the unit after the number, please.

Record excerpt, results attached:
COc1cccc(-n2c(-c3ccc(Cl)cc3)cn(N=C3C(=O)c4cccc5cccc3c45)c2=S)c1 [5j]: 12.7 nM
COc1cccc2c1C(=O)c1c(O)c3c(c(O)c1C2=O)C[C@@](O)(C(=O)CO)C[C@@H]3O[C@H]1C[C@H](N)[C@H](O)[C@H](C)O1 [doxorubicin, reference compound]: 4.09 nM
O=C1C(=Nn2cc(-c3ccccc3)n(-c3ccccc3)c2=S)c2cccc3cccc1c23 [5b]: 7.78 nM
COc1cccc(-n2c(-c3ccccc3)cn(N=C3C(=O)c4cccc5cccc3c45)c2=S)c1 [5e]: 14.2 nM

Ask | // fetch calf thymus DNA (ctDNA) LOD (limit of detection; minimum concentration inducing detectable damage in ctDNA) for O=C1C(=Nn2cc(-c3ccc(Cl)cc3)n(-c3ccccc3)c2=S)c2cccc3cccc1c23 [5h]
Reply | 7.14 nM

###

# melting point listing for each entry below

Record excerpt, results attached:
C=CCn1c(-c2ccc3ccccc3c2)cn(N=C2C(=O)c3cccc4cccc2c34)c1=S [5n]: 230 to 232 °C
O=C1C(=Nn2cc(-c3ccccc3)n(C3CCCCC3)c2=S)c2cccc3cccc1c23 [5d]: 192 to 194 °C
Cn1c(-c2ccccc2)cn(N=C2C(=O)c3cccc4cccc2c34)c1=S [5a]: 220 to 222 °C
COc1cccc(-n2c(-c3ccc(Cl)cc3)cn(N=C3C(=O)c4cccc5cccc3c45)c2=S)c1 [5j]: 282 to 284 °C
O=C1C(=Nn2cc(-c3ccc(Cl)cc3)n(-c3ccccc3)c2=S)c2cccc3cccc1c23 [5h]: 260 to 262 °C
COc1cccc(-n2c(-c3ccccc3)cn(N=C3C(=O)c4cccc5cccc3c45)c2=S)c1 [5e]: 212 to 214 °C
Cn1c(-c2ccc3ccccc3c2)cn(N=C2C(=O)c3cccc4cccc2c34)c1=S [5l]: 240 to 242 °C

Then there is this molecule:
Ask | Please report the recorded melting point for O=C1C(=Nn2cc(-c3ccccc3)n(Cc3ccccc3)c2=S)c2cccc3cccc1c23 [5c] .
Reply | 212 to 214 °C
